# ASSAY NOTES: Tissue bio-distribution and tissue pharmacokinetics of DMA
# Assay type: in vivo, mouse
# CONDITION NOTES: Balb/c, mouse, lung, iv; i.v. 50 mg/kg, 16 h; read-out: Tissue DMA concentration, Lung

>  <TEST SMILES>
COc1ccc(-c2nc3cc(-c4nc5cc(N6CCN(C)CC6)ccc5[nH]4)ccc3[nH]2)cc1OC

>  <UNITS TEXT>
ng/g

>  <concentration at 16 h>
993

$$$$

###

# ASSAY NOTES: Tissue bio-distribution and tissue pharmacokinetics of DMA
# Format: in vivo, mouse
# CONDITION NOTES: Balb/c, mouse, liver; 100 mg/kg oral dose; read-out: Tmax, Liver
# Description: Tissue samples were collected from the same mice from which blood samples were collected in both doses of DMA. […] A standard DMA calibration from 1-1000 ng/ml with internal standard (20 ng/ml) was quantified. […] Peak tissue concentration (Cmax) of DMA and time to reach the Cmax (tmax) were read directly from the raw data by visual examination of mean tissue concentration-time profile. […]
MEASUREMENT NAME: Tmax (h)

>  <TEST SMILES>
COc1ccc(-c2nc3cc(-c4nc5cc(N6CCN(C)CC6)ccc5[nH]4)ccc3[nH]2)cc1OC

>  <MEASUREMENT NAME>
Tmax

>  <RECORDED MEASUREMENT>
4

$$$$

###

# ASSAY NOTES: Tissue bio-distribution and tissue pharmacokinetics of DMA
# Type: in vivo, mouse
# CONDITION NOTES: Balb/c, mouse, intestine; Oral 100 mg/kg, 16 h; read-out: Tissue DMA concentration, Intestine

>  <TEST SMILES>
COc1ccc(-c2nc3cc(-c4nc5cc(N6CCN(C)CC6)ccc5[nH]4)ccc3[nH]2)cc1OC

>  <UNITS TEXT>
ng/g

>  <concentration at 16 h>
612

$$$$

###

# ASSAY NOTES: Tissue bio-distribution and tissue pharmacokinetics of DMA
# Type: in vivo, mouse
# CONDITION NOTES: Balb/c, mouse, spleen; 50 mg/kg intravenous; read-out: C1 hr, Spleen

>  <TEST SMILES>
COc1ccc(-c2nc3cc(-c4nc5cc(N6CCN(C)CC6)ccc5[nH]4)ccc3[nH]2)cc1OC

>  <concentration at 1 h>
6970 ng/g

$$$$
